- STUDY TARGET: HDAC1 (Homo sapiens)
- Sequence (Q13547 whole entry, species assumed): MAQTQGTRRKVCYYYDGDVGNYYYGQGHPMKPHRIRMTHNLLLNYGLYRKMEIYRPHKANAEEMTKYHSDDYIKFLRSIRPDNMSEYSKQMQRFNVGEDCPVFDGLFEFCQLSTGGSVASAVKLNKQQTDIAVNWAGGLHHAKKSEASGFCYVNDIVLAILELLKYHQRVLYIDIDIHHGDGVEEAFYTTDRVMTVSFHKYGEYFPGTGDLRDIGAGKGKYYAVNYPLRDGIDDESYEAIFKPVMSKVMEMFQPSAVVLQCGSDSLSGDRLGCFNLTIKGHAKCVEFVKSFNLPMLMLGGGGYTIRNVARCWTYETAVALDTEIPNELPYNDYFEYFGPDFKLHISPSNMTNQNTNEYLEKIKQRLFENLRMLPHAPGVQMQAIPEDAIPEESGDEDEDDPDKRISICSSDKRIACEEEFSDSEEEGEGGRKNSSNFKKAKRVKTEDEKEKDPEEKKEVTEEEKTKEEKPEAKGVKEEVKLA
REPORTED METRIC: IC50 (nM)
Enter your answer as a number in nM; do not include the unit.

// known answers, use as guide
CCCNNC(=O)c1ccc(CNC(=O)c2ccccc2-c2c3ccc(=N)cc-3oc3cc(N)ccc23)cc1 [LL65, 2,2,2-trifluoroacetate]
276
N=c1ccc2c(-c3ccccc3C(=O)NCCCCCCC(=O)Nc3ccccc3N)c3ccc(N)cc3oc-2c1 [LL45, 2,2,2-trifluoroacetate]
1950
CCCNNC(=O)c1ccc(NC(=O)CNC(=O)c2ccccc2-c2c3ccc(=N)cc-3oc3cc(N)ccc23)cc1 [LL162, 2,2,2-trifluoroacetate]
124

Would you kindly look at the next entry?
So, CCCNNC(=O)CCCCCCNC(=O)c1ccccc1-c1c2ccc(=N)cc-2oc2cc(N)ccc12 [LL142, 2,2,2-trifluoroacetate] ? Its IC50 was 111
